- Test system: large crabgrass
- experimental_details: Test A pre-/postemergence herbicide test
- Type: in vivo, Digitaria sanguinalis
- condition_summary: preemergence, 500 g ai/ha; visual injury, 0 to 100 scale (0 no effect, 100 complete control)
Please respond with reported Crabgrass, Large plant response rating for every item in the list.
One number for each entry.

> print(dat)
                         chemical.structure                              value.type  assay.value
1  CCNC(=O)c1cccc(NC(=O)c2sc(C(C)(C)C)nc2CC)c1  Crabgrass, Large plant response rating           90
2  CCn1nc(C(C)(C)C)nc1C(=O)Nc1cccc(OC(F)(F)F)c1  Crabgrass, Large plant response rating           80
3  CCc1nc(C(C)(C)C)sc1C(=O)Nc1cccc(C(=O)NCC(F)(F)F)c1  Crabgrass, Large plant response rating           20

Here are 3 compounds. What values of Crabgrass, Large plant response rating were reported for them?
1. CCNC(=O)c1cccc(NC(=O)c2sc(C(C)(C)C)nc2CC)n1
2. CCOC(=O)c1cccc(NC(=O)c2cc(C(C)(C)C)nn2C)n1
3. CCc1nn(C2CCCC2)nc1C(=O)Nc1cccc(C(=O)N2CC=CC2)c1

Output:
1. 55
2. 85
3. 10

Kindly note: large crabgrass, C#CCOC(=O)c1cccc(NC(=O)c2cc(C(C)(C)C)nn2C)n1 , Crabgrass, Large plant response rating value reported: 0
